- TEST SYSTEM: Urotensin-2 receptor (Rattus norvegicus)
- ASSAY TEXT: Agonist activity at urotensin-2 receptor in Sprague-Dawley rat aortic rings assessed as KCl-induced vasoconstriction
- CONDITION SET: read-out: EC50
For each of the compounds below, state its EC50.
Answers are plain numbers, in nM.

CC(C)[C@H](NC(=O)[C@@H]1CSSC[C@H](NC(=O)[C@H](C)N)C(=O)N[C@@H](Cc2ccccc2)C(=O)N2CCc3ccccc3[C@H]2C(=O)N[C@@H](CCCCN)C(=O)N[C@@H](Cc2ccc(O)cc2)C(=O)N1)C(=O)O; 22

Alright, here's another compound for you.
State its EC50 on Urotensin-2 receptor (Rattus norvegicus): CC(C)[C@H](NC(=O)[C@@H]1CSSC[C@H](NC(=O)[C@H](C)N)C(=O)N[C@@H](Cc2ccccc2)C(=O)N2CCc3ccccc3[C@@H]2C(=O)N[C@@H](CCCCN)C(=O)N[C@@H](Cc2ccc(O)cc2)C(=O)N1)C(=O)O
21

---

- TEST SYSTEM: Urotensin-2 receptor (Rattus norvegicus)
- ASSAY TEXT: Agonist activity at urotensin-2 receptor in Sprague-Dawley rat aortic rings assessed as KCl-induced vasoconstriction
- CONDITION SET: read-out: pEC50 (converted)
QUANTITY KIND: EC50 (nM)
Give bare numbers, in nM.

CC(C)[C@H](NC(=O)[C@@H]1CSSC[C@H](NC(=O)[C@H](C)N)C(=O)N[C@@H](Cc2ccccc2)C(=O)N2Cc3ccccc3C[C@@H]2C(=O)N[C@@H](CCCCN)C(=O)N[C@@H](Cc2ccc(O)cc2)C(=O)N1)C(=O)O; 832
CC(C)[C@H](NC(=O)[C@@H]1CSSC[C@H](NC(=O)[C@H](C)N)C(=O)N[C@@H](Cc2ccccc2)C(=O)N[C@H]2Cc3c([nH]c4ccccc34)CN(C2=O)[C@@H](CCCCN)C(=O)N[C@@H](Cc2ccc(O)cc2)C(=O)N1)C(=O)O; 380
CC(C)[C@H](NC(=O)[C@@H]1CSSC[C@H](NC(=O)[C@H](CC(=O)O)NC(=O)[C@@H]2CCCN2C(=O)[C@@H](NC(=O)[C@@H](N)CCC(=O)O)[C@@H](C)O)C(=O)N[C@@H](Cc2ccccc2)C(=O)N[C@@H](Cc2c[nH]c3ccccc23)C(=O)N[C@@H](CCCCN)C(=O)N[C@@H](Cc2ccc(O)cc2)C(=O)N1)C(=O)O; 0.832

Alright, here's another compound for you.
State its EC50 on Urotensin-2 receptor (Rattus norvegicus): CC(C)[C@H](NC(=O)[C@@H]1CSSC[C@H](NC(=O)[C@H](C)N)C(=O)N[C@@H](Cc2ccccc2)C(=O)N[C@@H]2Cc3c([nH]c4ccccc34)CN(C2=O)[C@@H](CCCCN)C(=O)N[C@@H](Cc2ccc(O)cc2)C(=O)N1)C(=O)O
162

---

- TEST SYSTEM: Urotensin-2 receptor (Homo sapiens, UniProt Q9UKP6)
- Sequence (Q9UKP6 whole entry): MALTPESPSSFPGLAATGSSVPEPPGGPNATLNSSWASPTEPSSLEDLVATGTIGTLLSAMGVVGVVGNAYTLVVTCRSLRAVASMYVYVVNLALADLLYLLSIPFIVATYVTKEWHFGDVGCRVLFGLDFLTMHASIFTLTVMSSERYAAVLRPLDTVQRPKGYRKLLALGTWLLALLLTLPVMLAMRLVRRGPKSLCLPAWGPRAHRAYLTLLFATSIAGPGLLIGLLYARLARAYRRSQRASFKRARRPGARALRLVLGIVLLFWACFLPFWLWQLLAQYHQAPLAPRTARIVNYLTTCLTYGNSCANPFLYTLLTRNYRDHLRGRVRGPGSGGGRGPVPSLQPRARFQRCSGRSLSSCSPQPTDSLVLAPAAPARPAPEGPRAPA
- ASSAY TEXT: Displacement of [125I]-Urotensin-2 from human GPR14 expressed in CHO cells after 90 mins by gamma counting analysis
- Type: cell-based
- CONDITION SET: read-out: IC50
For each of the compounds below, state its pIC50.
Numbers only, as −log10 of the molar value.

CC(C)[C@H](NC(=O)[C@@H]1CSSC[C@H](NC(=O)[C@H](C)N)C(=O)N[C@@H](Cc2ccccc2)C(=O)N[C@@H](Cc2ccc(I)cc2)C(=O)N[C@@H](CCCCN)C(=O)N[C@@H](Cc2ccc(O)cc2)C(=O)N1)C(=O)O; 7.24

State its pIC50 on Urotensin-2 receptor (Homo sapiens, UniProt Q9UKP6): CC(C)[C@H](NC(=O)[C@@H]1CSSC[C@H](NC(=O)[C@H](C)N)C(=O)N[C@@H](Cc2ccccc2)C(=O)N[C@@H](Cc2cccc3ccccc23)C(=O)N[C@@H](CCCCN)C(=O)N[C@@H](Cc2ccc(O)cc2)C(=O)N1)C(=O)O
7.77

---

- TEST SYSTEM: Urotensin-2 receptor (Rattus norvegicus) (UniProt P49684)
- Sequence (whole entry): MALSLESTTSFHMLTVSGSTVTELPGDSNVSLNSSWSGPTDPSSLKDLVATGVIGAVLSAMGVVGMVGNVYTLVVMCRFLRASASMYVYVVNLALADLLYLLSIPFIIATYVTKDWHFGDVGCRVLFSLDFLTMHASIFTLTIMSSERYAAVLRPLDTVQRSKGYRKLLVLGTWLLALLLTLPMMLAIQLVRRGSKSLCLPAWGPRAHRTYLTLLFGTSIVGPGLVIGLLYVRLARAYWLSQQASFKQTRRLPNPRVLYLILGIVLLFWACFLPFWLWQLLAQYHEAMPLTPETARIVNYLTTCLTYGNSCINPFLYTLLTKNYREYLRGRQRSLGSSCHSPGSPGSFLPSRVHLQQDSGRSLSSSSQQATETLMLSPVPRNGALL
- ASSAY TEXT: Agonist activity at urotensin-2 receptor in Sprague-Dawley rat aortic rings assessed as KCl-induced vasoconstriction at 3 X 10^-11 to 3 X 10^-6 M relative to control
Active and inactive are the calls of the source. No cut-off for these calls is given here.
QUANTITY KIND: Emax

CC(C)[C@H](NC(=O)[C@@H]1CSSC[C@@H](NC(=O)[C@H](CC(=O)O)NC(=O)[C@H]2CCCN2C(=O)[C@@H](NC(=O)[C@@H](N)CCC(=O)O)[C@@H](C)O)C(=O)N[C@H](Cc2ccccc2)C(=O)N[C@@H](Cc2c[nH]c3ccccc23)C(=O)N[C@H](CCCCN)C(=O)N[C@@H](Cc2ccc(O)cc2)C(=O)N1)C(=O)O; 117%
CC(C)[C@H](NC(=O)[C@@H]1CSSC[C@H](NC(=O)[C@H](C)N)C(=O)N[C@@H](Cc2ccccc2)C(=O)N2CCc3ccccc3[C@@H]2C(=O)N[C@@H](CCCCN)C(=O)N[C@@H](Cc2ccc(O)cc2)C(=O)N1)C(=O)O; 113%
CC(C)[C@H](NC(=O)[C@@H]1CSSC(C)(C)[C@@H](NC(=O)[C@H](C)N)C(=O)N[C@@H](Cc2ccccc2)C(=O)N2CCc3ccccc3[C@H]2C(=O)N[C@@H](CCCCN)C(=O)N[C@@H](Cc2ccc(O)cc2)C(=O)N1)C(=O)O; inactive
CC(C)[C@H](NC(=O)[C@@H]1CSSC[C@H](NC(=O)[C@H](C)N)C(=O)N[C@@H](Cc2ccccc2)C(=O)N2Cc3[nH]c4ccccc4c3C[C@H]2C(=O)N[C@@H](CCCN)C(=O)N[C@@H](Cc2ccc(O)cc2)C(=O)N1)C(=O)O; inactive

---

- TEST SYSTEM: Urotensin-2 receptor (Rattus norvegicus)
- Sequence (P49684 whole entry): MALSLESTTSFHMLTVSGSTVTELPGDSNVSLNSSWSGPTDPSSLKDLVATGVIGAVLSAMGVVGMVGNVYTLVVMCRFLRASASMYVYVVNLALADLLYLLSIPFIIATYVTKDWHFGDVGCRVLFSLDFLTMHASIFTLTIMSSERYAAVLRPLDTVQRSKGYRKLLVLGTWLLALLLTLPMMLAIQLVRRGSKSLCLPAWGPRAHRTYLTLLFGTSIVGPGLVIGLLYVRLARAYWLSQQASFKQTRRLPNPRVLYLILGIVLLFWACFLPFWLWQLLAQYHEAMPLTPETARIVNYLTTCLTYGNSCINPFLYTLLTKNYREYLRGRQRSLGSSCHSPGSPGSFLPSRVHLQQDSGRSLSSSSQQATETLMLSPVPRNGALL
- ASSAY TEXT: Agonist activity at urotensin-2 receptor in Sprague-Dawley rat aortic rings assessed as KCl-induced vasoconstriction
- CONDITION SET: read-out: pEC50 (converted)
For each of the compounds below, state its EC50.

As a guide, the following entries are already answered.
CC(C)[C@H](NC(=O)[C@@H]1CSSC[C@H](NC(=O)[C@H](C)N)C(=O)N[C@@H](Cc2ccccc2)C(=O)N[C@H](C(C)(C)C)C(=O)N[C@@H](CCCCN)C(=O)N[C@@H](Cc2ccc(O)cc2)C(=O)N1)C(=O)O; > 1 µM
CC(C)[C@H](NC(=O)[C@@H]1CSSC[C@H](NC(=O)[C@H](C)N)C(=O)N[C@@H](Cc2ccccc2)C(=O)N[C@@H](C(c2ccccc2)c2ccccc2)C(=O)N[C@@H](CCCCN)C(=O)N[C@@H](Cc2ccc(O)cc2)C(=O)N1)C(=O)O; > 1 µM
CC(C)[C@H](NC(=O)[C@@H]1CSSC[C@H](NC(=O)[C@H](C)N)C(=O)N[C@@H](Cc2ccccc2)C(=O)N[C@@H](Cc2c[nH]c3ccccc23)C(=O)N[C@@H](CCCCN)C(=O)N[C@@H](Cc2ccc(O)cc2)C(=O)N1)C(=O)O; 0.00813 µM
CC(C)[C@H](NC(=O)[C@@H]1CSSC[C@H](NC(=O)[C@H](C)N)C(=O)N[C@@H](Cc2ccccc2)C(=O)N2Cc3ccccc3C[C@H]2C(=O)N[C@@H](CCCCN)C(=O)N[C@@H](Cc2ccc(O)cc2)C(=O)N1)C(=O)O; > 1 µM

Alright, here's another compound for you.
# get_value(readout='EC50', item= CC(C)[C@H](NC(=O)[C@@H]1CSSC[C@H](NC(=O)[C@H](C)N)C(=O)N[C@@H](Cc2ccccc2)C(=O)N[C@@H](CC2CCCCC2)C(=O)N[C@@H](CCCCN)C(=O)N[C@@H](Cc2ccc(O)cc2)C(=O)N1)C(=O)O )
> 1 µM
